Each item that follows carries a reported Activity.
Tested on: A498
Experiment: Cytotoxicity against human A498 cells assessed as cellular growth at 10 uM by SRB assay
Format: functional
Please reply with the bare figure in % and do not write the unit itself.

These recorded examples may help you get a feel for the data.
compoundStructureString: O=C(Nc1ccc2oc(=O)ccc2c1)c1ccc(-c2ccc(Br)cc2)o1
Activity [%]: 101.8

compoundStructureString: O=c1/c(=C/c2ccc(Cl)cc2Cl)sc2nc(-c3ccccc3)nn12
Activity [%]: 112.37

compoundStructureString: Clc1ccc(-c2nc(-c3cccs3)no2)cc1
Activity [%]: 93.08

compoundStructureString: Cc1ccc(S(=O)(=O)NC2=NC(=O)/C(=C\c3ccccc3)S2)cc1
Activity [%]: 11.33

compoundStructureString: Cc1cccc(-c2nc(-c3cccs3)no2)c1
Activity [%]: 82.09

compoundStructureString: N#Cc1ccc(-n2nnc3ccccc32)cc1C#N
Activity [%]: 72.76

compoundStructureString: O=C(NCc1cccnc1)c1sc2cc([N+](=O)[O-])ccc2c1Cl
Activity [%]: 66.73

compoundStructureString: CC1(C)CCc2cc(-c3ccn(S(=O)(=O)c4cccc(C(F)(F)F)c4)n3)ccc2O1
Activity [%]: 94.88

(Q) State the recorded Activity for this entry: `Cc1ccc(NC(=O)c2sc3nc4c(cc3c2N)C(=O)CCC4)c(Br)c1`
(A) 83.73

(Q) Fill blank: measured Activity of the compound `Cc1ccc(CNC(=O)c2[nH]c3ccccc3c2Cl)cc1` is ____.
(A) 69

(Q) Requested field: Activity. Item: `CC1(C)CC(=O)c2cc3c(N)c(C(=O)NCc4ccccc4)sc3nc2C1`
(A) 89.05

(Q) Item under review: `Cc1ccccc1NC(=O)c1sc2nc3c(cc2c1N)C(=O)CCC3` . Reported Activity?
(A) 31.28

(Q) # get_value(readout='Activity', item= `Cc1ccc(NC(=O)c2sc3nc4c(cc3c2N)C(=O)CCC4)cc1Cl` )
(A) 97.9

(Q) Given `Cc1ccc(NC(=O)c2sc3nc(-c4cccs4)ccc3c2N)cc1C` , state its recorded Activity.
(A) 88.5

(Q) Request the reported Activity associated with `Oc1ccccc1-c1nc(-c2cccs2)no1`
(A) 105.68
